Experiment: Pharmacokinetics in rat plasma after oral administration of SF-CS and SP-CS extracts (HPLC-MS/MS)
Type: in vivo, Male Sprague-Dawley rats
Details: male, Sprague-Dawley; rat plasma, oral SF-CS extract (A) 1.9 g kg^-1, n = 10, mean ± SD; read-out: MRT0–24h
Could you label it 1.0 if measured MRT last is 5 h or higher, and 0.0 otherwise?

In [3]: df
Out[3]:
                                  structure  classification
0  O=C(/C=C/c1ccc(O)c(O)c1)O[C@@H]1C[C@@](O)(C(=O)O)C[C@@H](O)[C@@H]1O             1.0
1  O=c1c(O[C@@H]2O[C@H](CO)[C@@H](O)[C@H](O)[C@H]2O)c(-c2ccc(O)cc2)oc2cc(O)cc(O)c12             0.0
2                    O=C(O)/C=C/c1ccc(O)cc1             0.0
3  O=c1c(O[C@@H]2O[C@H](CO)[C@H](O)[C@H](O)[C@H]2O)c(-c2ccc(O)c(O)c2)oc2cc(O)cc(O)c12             1.0
4  O=C(/C=C/c1ccc(O)c(O)c1)O[C@@H]1C[C@](O)(C(=O)O)C[C@@H](O)[C@H]1O             0.0

---

Assay: Pharmacokinetics in rat plasma after oral administration of SF-CS and SP-CS extracts (HPLC-MS/MS)
Format: in vivo, Male Sprague-Dawley rats
Settings: male, Sprague-Dawley; rat plasma, oral SP-CS extract (B) 2.2 g kg^-1, n = 10
Listed next: entries and their corresponding Tmax.
property_name: Tmax (min)

                                  structure   val
0                    O=C(O)/C=C/c1ccc(O)cc1  19.8
1  O=C(/C=C/c1ccc(O)c(O)c1)O[C@@H]1C[C@](O)(C(=O)O)C[C@@H](O)[C@H]1O  16.8
2  O=c1c(O[C@@H]2O[C@H](CO)[C@H](O)[C@H](O)[C@H]2O)c(-c2ccc(O)c(O)c2)oc2cc(O)cc(O)c12   6.6
3  O=C(/C=C/c1ccc(O)c(O)c1)O[C@@H]1C[C@@](O)(C(=O)O)C[C@@H](O)[C@@H]1O  15.6
4  O=c1c(O[C@@H]2O[C@H](CO)[C@@H](O)[C@H](O)[C@H]2O)c(-c2ccc(O)cc2)oc2cc(O)cc(O)c12  10.2

---

Listed next: entries and their corresponding AUC(0-t).
Assay: Pharmacokinetics in rat plasma after oral administration of SF-CS and SP-CS extracts (HPLC-MS/MS)
Format: in vivo, Male Sprague-Dawley rats
Details: male, Sprague-Dawley; rat plasma, oral SF-CS extract (A) 1.9 g kg^-1, n = 10, mean ± SD; read-out: AUC0–24h
property_name: AUC(0-t) (ng·h/mL)

In [3]: df
Out[3]:
                                  structure  property_name   val
0  O=C(/C=C/c1ccc(O)c(O)c1)O[C@@H]1C[C@@](O)(C(=O)O)C[C@@H](O)[C@@H]1O       AUC(0-t)   548
1  O=C(/C=C/c1ccc(O)c(O)c1)O[C@@H]1C[C@](O)(C(=O)O)C[C@@H](O)[C@H]1O       AUC(0-t)  1660
2  O=c1c(O[C@@H]2O[C@H](CO)[C@@H](O)[C@H](O)[C@H]2O)c(-c2ccc(O)cc2)oc2cc(O)cc(O)c12       AUC(0-t)  1.27
3                    O=C(O)/C=C/c1ccc(O)cc1       AUC(0-t)  3200
4  O=c1c(O[C@@H]2O[C@H](CO)[C@H](O)[C@H](O)[C@H]2O)c(-c2ccc(O)c(O)c2)oc2cc(O)cc(O)c12       AUC(0-t)   172

Ref: paper PMC6651454
